# Tested on: Influenza A viruses
# PROCEDURE DETAILS: virulicidal activity, virus titer in allantoic fluid by hemagglutination-inhibition
# COND: concentration 2.0 % by mass, 60 min
REPORTED ENDPOINT: Virulicidal activity (%) under exposure 60 min
Give bare numbers, in %.

COMPOUND: CC(C)OP(=NC(CCl)C(O)c1ccc([N+](=O)[O-])cc1)(OC(C)C)OC(C)C (stereo not drawn)
UNIT NAME: %
MEASURED VALUE: 100.0
--
COMPOUND: CCCCOP(=NC(CCl)C(Cl)c1ccc([N+](=O)[O-])cc1)(OCCCC)OCCCC (stereo not drawn)
UNIT NAME: %
MEASURED VALUE: 100.0
--
COMPOUND: O=S(=O)(NCl)c1ccccc1 [sodium N-chlorobenzenesulfamide, reference compound]
UNIT NAME: %
MEASURED VALUE: 50.0
--
COMPOUND: CCCOP(=NC(CCl)C(O)c1ccc([N+](=O)[O-])cc1)(OCCC)OCCC (stereo not drawn)
UNIT NAME: %
MEASURED VALUE: 75.0
--
COMPOUND: CCOP(=NC(CCl)C(O)c1ccc([N+](=O)[O-])cc1)(OCC)OCC (stereo not drawn)
UNIT NAME: %
MEASURED VALUE: 100.0

Field: next compound
Request: Item under review: O=[N+]([O-])c1ccc(C(Cl)C(CCl)N=P(OC(CCl)c2ccccc2)(OC(CCl)c2ccccc2)OC(CCl)c2ccccc2)cc1 (stereo not drawn) . Reported Virulicidal activity (%) under exposure 60 min?
Result: 100.0

From: patent EP0414894A1
